In this section we review reported Tmax values for a set of compounds.
# testProtocol: Pharmacokinetics and bioanalysis in the rat
# Assay type: in vivo, male Sprague Dawley Rats
# experimentalContext: male, Sprague Dawley, oral 10 mg/kg, citric acid salt, plasma
The figure you give is taken to be in min; do not add the unit.

Some compounds with recorded Tmax:
> print(dat)
                                   compound  endpointresult
1  O=C(O)CC(O)(CC(=O)O)C(=O)O.O=C(c1ccc(CN2CCC(F)CC2)cc1)N1CCN(C2CCC2)CC1 [Comparative Example 4B]            40.2
2  O=C(O)CC(O)(CC(=O)O)C(=O)O.O=C(c1ccc(CN2CCOCC2)cc1)N1CCN(C2CC2)CC1 [Example 1B]              30
3  O=C(O)CC(O)(CC(=O)O)C(=O)O.O=C(c1ccc(CN2CCSCC2)cc1)N1CCN(C2CC2)CC1 [Example 3B]              15
4  CC(C)N1CCN(C(=O)c2ccc(CN3CCOC(CO)C3)cc2)CC1 (stereo not drawn) [Comparative Example 6B]              30
5  O=C(O)CC(O)(CC(=O)O)C(=O)O.O=C(c1ccc(CN2CCOC(CO)C2)cc1)N1CCN(C2CC2)CC1 (stereo not drawn) [Example 4B]            49.8

INPUT: Recorded Tmax for O=C(O)CC(O)(CC(=O)O)C(=O)O.O=C(c1ccc(CN2CCOCC2)cc1)N1CCN(C2CCC2)CC1 [Comparative Example 2B] , please?
OUTPUT: 79.8

###

# testProtocol: Pharmacokinetics and bioanalysis in the rat
# Type: in vivo, male Sprague Dawley Rats
# experimentalContext: male, Sprague Dawley, plasma, iv, i.v. 1 mg/kg, citric acid salt, read-out: Vd
Flag rule - Vd less than 4 L/kg flags met; the remaining entries get not met.

> print(dat)
                                   molecule  classassignment
1  O=C(O)CC(O)(CC(=O)O)C(=O)O.O=C(c1ccc(CN2CCOC(CO)C2)cc1)N1CCN(C2CC2)CC1 (centres unmarked)              met
2  CC(C)N1CCN(C(=O)c2ccc(CN3CCOCC3)cc2)CC1.O=C(O)CC(O)(CC(=O)O)C(=O)O              met
3  O=C(O)CC(O)(CC(=O)O)C(=O)O.O=C(c1ccc(CN2CCOCC2)cc1)N1CCN(C2CC2)CC1              met
4  O=C(O)CC(O)(CC(=O)O)C(=O)O.O=C(c1ccc(CN2CCSCC2)cc1)N1CCN(C2CC2)CC1          not met
5  CC(C)N1CCN(C(=O)c2ccc(CN3CCOC(CO)C3)cc2)CC1 (centres unmarked)          not met

INPUT: Identify whether the molecule "O=C(O)CC(O)(CC(=O)O)C(=O)O.O=C(c1ccc(CN2CCOCC2)cc1)N1CCN(C2CCC2)CC1" records Vd below 4 L/kg.
OUTPUT: not met

INPUT: Then "O=C(O)CC(O)(CC(=O)O)C(=O)O.O=C(c1ccc(CN2CCSCC2)cc1)N1CCN(C2CCC2)CC1" ?
OUTPUT: not met

###

In this section we review reported Cmax values for a set of compounds.
# testProtocol: Pharmacokinetics and bioanalysis in the rat
# Format: in vivo, male Sprague Dawley Rats
# experimentalContext: male, Sprague Dawley, iv, i.v. 1 mg/kg, citric acid salt, plasma
The figure you give is taken to be in ng/mL; do not add the unit.

Some compounds with recorded Cmax:
> print(dat)
                                   compound  measuredquantity  unitinfo  endpointresult
1  CC(C)N1CCN(C(=O)c2ccc(CN3CCOCC3)cc2)CC1.O=C(O)CC(O)(CC(=O)O)C(=O)O [Comparative Example 1B]              Cmax     ng/mL            4110
2  O=C(O)CC(O)(CC(=O)O)C(=O)O.O=C(c1ccc(CN2CCOCC2)cc1)N1CCN(C2CC2)CC1 [Example 1B]              Cmax     ng/mL             935

Alright, here's another compound for you.
INPUT: Recorded Cmax for O=C(O)CC(O)(CC(=O)O)C(=O)O.O=C(c1ccc(CN2CCOCC2)cc1)N1CCN(C2CCC2)CC1 [Comparative Example 2B] , please?
OUTPUT: 285
